meta.source: patent US20220267421A1

Biological target: T1, cell surface human mesothelin (MSLN) (human, UniProt Q13421 296-598)
T1 construct: whole, on cells; also called cell surface MSLN
T1 sequence (Q13421 other isoform, or with tags, fused parts or gaps limits assumed): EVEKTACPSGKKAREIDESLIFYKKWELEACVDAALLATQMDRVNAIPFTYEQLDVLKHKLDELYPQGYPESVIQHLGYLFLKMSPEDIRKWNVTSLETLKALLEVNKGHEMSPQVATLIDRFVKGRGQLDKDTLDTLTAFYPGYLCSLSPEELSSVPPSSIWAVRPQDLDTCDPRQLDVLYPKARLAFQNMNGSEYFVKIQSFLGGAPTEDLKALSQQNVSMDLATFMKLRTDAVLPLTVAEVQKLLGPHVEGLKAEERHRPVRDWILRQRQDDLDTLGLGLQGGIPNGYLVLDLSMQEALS
Assay: flow cytometry, NCI-H226 cells + 20 nM soluble MSLN
Known Emax (MFI) of a selection of binders
Supply the numeric figure in MFI, leaving out any unit text.

Previously resolved entries follow.
Binder: FS22-053-008-AA/FS28-256-023 mAb^2 (bispecific antibody, human IgG1, kappa, L234A L235A, V domains shown) VH: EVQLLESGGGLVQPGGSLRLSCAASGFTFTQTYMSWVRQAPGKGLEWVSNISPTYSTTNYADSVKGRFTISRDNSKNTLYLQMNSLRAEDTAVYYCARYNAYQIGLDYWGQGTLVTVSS VL: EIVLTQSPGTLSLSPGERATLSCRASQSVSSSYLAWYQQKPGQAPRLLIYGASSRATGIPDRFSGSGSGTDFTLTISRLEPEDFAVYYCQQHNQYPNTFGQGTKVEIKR
Emax (MFI): 716000
//
Binder: FS22-053-008-AA/FS28-256-005 mAb^2 (bispecific antibody, human IgG1, kappa, L234A L235A, V domains shown) VH: EVQLLESGGGLVQPGGSLRLSCAASGFTFTETYMSWVRQAPGKGLEWVSNISPTYSTTNYADSVKGRFTISRDNSKNTLYLQMNSLRAEDTAVYYCARYNSYQGGLDYWGQGTLVTVSS VL: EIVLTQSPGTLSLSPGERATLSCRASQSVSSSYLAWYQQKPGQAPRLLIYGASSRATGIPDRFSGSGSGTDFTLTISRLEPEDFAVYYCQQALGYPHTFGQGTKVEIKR
Emax (MFI): 654000

Here is another binder to look at.
Problem: What value of Emax (MFI) has been reported for the following binder? FS22-053-008-AA/FS28-256-012 mAb^2 (bispecific antibody, human IgG1, kappa, L234A L235A, V domains shown) VH: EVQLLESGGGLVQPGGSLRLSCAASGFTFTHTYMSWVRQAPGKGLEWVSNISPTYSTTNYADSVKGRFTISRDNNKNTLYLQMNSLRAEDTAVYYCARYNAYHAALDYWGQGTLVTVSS VL: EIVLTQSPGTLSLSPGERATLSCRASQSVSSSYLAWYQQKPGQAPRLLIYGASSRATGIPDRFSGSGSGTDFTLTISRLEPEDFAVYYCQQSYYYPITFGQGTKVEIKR
Result: 790000
